# TEST DESCRIPTION: in vivo
# PROTOCOL CONDITIONS: male, LVG golden Syrian, hamster, in vivo, po, 30 mg/kg
ASSAY READOUT: AUC(0-inf) (ng·h/mL)

[[record]]
compound = "O=C(Nc1ccc([N+](=O)[O-])cc1Cl)c1cc(Cl)ccc1O [Nc, Niclosamide, reference compound]"
assay_readout = "AUC(0-inf)"
units = "ng·h/mL"
value = 1890

[[record]]
compound = "O=C(Nc1ccc([N+](=O)[O-])cc1Cl)c1cc(Cl)ccc1OC(=O)N1CCNCC1 [PDN]"
assay_readout = "AUC(0-inf)"
units = "ng·h/mL"
value = 4320


====

# TEST DESCRIPTION: Plasma protein binding, equilibrium dialysis (RED device)
# Type: in vitro ADME, human
# PROTOCOL CONDITIONS: human, human plasma, experimental, read-out: Fup (unbound fraction in plasma)
ASSAY READOUT: fraction unbound at 4 h, 5 µM

[[record]]
given_smiles = "O=C(Nc1ccc([N+](=O)[O-])cc1Cl)c1cc(Cl)ccc1OC(=O)N1CCNCC1"
value = 0.152


====

# TEST DESCRIPTION: Hamster PK and lung concentration study (non-compartmental analysis)
# PROTOCOL CONDITIONS: male, LVG golden Syrian, hamster, in vivo, po, 30 mg/kg
ASSAY READOUT: CL/F (mL/min)

[[record]]
given_smiles = "O=C(Nc1ccc([N+](=O)[O-])cc1Cl)c1cc(Cl)ccc1OC(=O)N1CCNCC1"
value = 11.5


====

# TEST DESCRIPTION: Mouse PK and tissue distribution study (non-compartmental analysis)
# PROTOCOL CONDITIONS: male, C57BL/6, mouse, in vivo, po, 10 mg/kg, t1/2 Obs, mice, PO 10 mg/kg PDN, intestine
ASSAY READOUT: half-life (h)

[[record]]
given_smiles = "O=C(Nc1ccc([N+](=O)[O-])cc1Cl)c1cc(Cl)ccc1OC(=O)N1CCNCC1"
value = 1.79


====

# TEST DESCRIPTION: Mouse PK and tissue distribution study (non-compartmental analysis)
# PROTOCOL CONDITIONS: male, C57BL/6, mouse, in vivo, po, 10 mg/kg, Tmax Obs, mice, PO 10 mg/kg PDN, adipose
ASSAY READOUT: Tmax (h)

[[record]]
compound = "O=C(Nc1ccc([N+](=O)[O-])cc1Cl)c1cc(Cl)ccc1OC(=O)N1CCNCC1 [PDN]"
value = 1.5


====

# TEST DESCRIPTION: in vitro
# PROTOCOL CONDITIONS: PAMPA, pH 7.4
# Method: The test samples (0.05 mM test article in pH 7.4 buffer with 0.5% DMSO) were added in the donor compartment and were stirred using the Gutbox technology (Pion Inc.) to reduce the aqueous boundary layer. The test article concentrations in the donor and acceptor compartments were measured using a UV plate reader (Nano Quant, Infinite 200 PRO, Tecan Inc., Männedorf, Switzerland).
ASSAY READOUT: Papp at 0.05 mM

[[record]]
molecule = "CNC(=C[N+](=O)[O-])NCCSCc1ccc(CN(C)C)o1 [Ranitidine, reference compound]"
value = "< 1 ×10⁻⁶ cm/s"


====

# TEST DESCRIPTION: Mouse PK and tissue distribution study (non-compartmental analysis)
# PROTOCOL CONDITIONS: male, C57BL/6, mouse, in vivo, po, 10 mg/kg, Tmax Obs, mice, PO 10 mg/kg PDN, liver
ASSAY READOUT: Tmax (h)

[[record]]
given_smiles = "O=C(Nc1ccc([N+](=O)[O-])cc1Cl)c1cc(Cl)ccc1OC(=O)N1CCNCC1"
value = 1.5


====

# TEST DESCRIPTION: Mouse PK and tissue distribution study (non-compartmental analysis)
# PROTOCOL CONDITIONS: male, C57BL/6, mouse, in vivo, iv, 3 mg/kg, CLp Obs, mice, IV 3 mg/kg PDN, plasma
ASSAY READOUT: clearance (mL/min)

[[record]]
given_smiles = "O=C(Nc1ccc([N+](=O)[O-])cc1Cl)c1cc(Cl)ccc1OC(=O)N1CCNCC1"
value = 1.05


====

# TEST DESCRIPTION: Mouse PK and tissue distribution study (non-compartmental analysis)
# PROTOCOL CONDITIONS: male, C57BL/6, mouse, in vivo, po, 10 mg/kg, Tmax Obs, mice, PO 10 mg/kg PDN, brain
ASSAY READOUT: Tmax (h)

[[record]]
compound = "O=C(Nc1ccc([N+](=O)[O-])cc1Cl)c1cc(Cl)ccc1OC(=O)N1CCNCC1 [PDN]"
assay_readout = "Tmax"
value = 1.5


====

# TEST DESCRIPTION: Hamster PK and lung concentration study (non-compartmental analysis)
# PROTOCOL CONDITIONS: male, LVG golden Syrian, hamster, in vivo, po, 30 mg/kg, t1/2 Observed, hamsters, PO 30 mg/kg PDN, lung
ASSAY READOUT: half-life (h)

[[record]]
molecule = "O=C(Nc1ccc([N+](=O)[O-])cc1Cl)c1cc(Cl)ccc1OC(=O)N1CCNCC1 [PDN]"
assay_readout = "half-life"
value = 2.3


====

# TEST DESCRIPTION: Mouse PK and tissue distribution study (non-compartmental analysis)
# PROTOCOL CONDITIONS: male, C57BL/6, mouse, in vivo, iv, 3 mg/kg, t1/2 Obs, mice, IV 3 mg/kg PDN, muscle
ASSAY READOUT: half-life (min)

[[record]]
given_smiles = "O=C(Nc1ccc([N+](=O)[O-])cc1Cl)c1cc(Cl)ccc1OC(=O)N1CCNCC1"
assay_readout = "half-life"
value = 115


====

# TEST DESCRIPTION: Mouse PK and tissue distribution study (non-compartmental analysis)
# PROTOCOL CONDITIONS: male, C57BL/6, mouse, in vivo, po, 10 mg/kg, Cmax Obs, mice, PO 10 mg/kg PDN, kidney
# Protocol: The in-life study (Animal Study Protocol Number: NIH ORS-51) was conducted at the NIH Animal Facility by the Division of Veterinary Resources (DVR, Bethesda, MD). In this study, 25–35 g male C57BL/6 mice (Charles River Laboratories, Frederick, MD) were used. […] The area under the concentration vs. time curve (AUC) was calculated using the linear trapezoidal method. […] Bioavailability (F) was calculated using ratios of dose-normalized AUC of PO and IV administration.
ASSAY READOUT: Cmax (ng/g)

[[record]]
compound = "O=C(Nc1ccc([N+](=O)[O-])cc1Cl)c1cc(Cl)ccc1OC(=O)N1CCNCC1 [PDN]"
units = "ng/g"
value = 5860


====

# TEST DESCRIPTION: Metabolic stability and biotransformation in liver microsomes
# PROTOCOL CONDITIONS: mouse, pH 7.4
ASSAY READOUT: Km (µM)

[[record]]
given_smiles = "O=C(Nc1ccc([N+](=O)[O-])cc1Cl)c1cc(Cl)ccc1OC(=O)N1CCNCC1"
units = "µM"
value = 20.2


====

# TEST DESCRIPTION: Mouse PK and tissue distribution study (non-compartmental analysis)
# PROTOCOL CONDITIONS: male, C57BL/6, mouse, in vivo, po, 10 mg/kg, Tmax Obs, mice, PO 10 mg/kg PDN, heart
ASSAY READOUT: Tmax (h)

[[record]]
given_smiles = "O=C(Nc1ccc([N+](=O)[O-])cc1Cl)c1cc(Cl)ccc1OC(=O)N1CCNCC1"
assay_readout = "Tmax"
value = 1.5


====

# TEST DESCRIPTION: Mouse PK and tissue distribution study (non-compartmental analysis)
# PROTOCOL CONDITIONS: male, C57BL/6, mouse, in vivo, po, 10 mg/kg, Cmax Obs, mice, PO 10 mg/kg PDN, adipose
# Experimental: The in-life study (Animal Study Protocol Number: NIH ORS-51) was conducted at the NIH Animal Facility by the Division of Veterinary Resources (DVR, Bethesda, MD). In this study, 25–35 g male C57BL/6 mice (Charles River Laboratories, Frederick, MD) were used. […] The area under the concentration vs. time curve (AUC) was calculated using the linear trapezoidal method. […] Bioavailability (F) was calculated using ratios of dose-normalized AUC of PO and IV administration.
ASSAY READOUT: Cmax

[[record]]
given_smiles = "O=C(Nc1ccc([N+](=O)[O-])cc1Cl)c1cc(Cl)ccc1OC(=O)N1CCNCC1"
value = "547 ng/g"


====

# TEST DESCRIPTION: Kinetic aqueous solubility (Pion µSOL assay)
# PROTOCOL CONDITIONS: pH 7.4
ASSAY READOUT: solubility kinetic at 6 h

[[record]]
given_smiles = "O=C(Nc1ccc([N+](=O)[O-])cc1Cl)c1cc(Cl)ccc1OC(=O)N1CCNCC1"
value = "> 43.5 µg/mL"


====

# TEST DESCRIPTION: Hamster PK and lung concentration study (non-compartmental analysis)
# PROTOCOL CONDITIONS: male, LVG golden Syrian, hamster, in vivo, po, 30 mg/kg
ASSAY READOUT: Vd/F (L)

[[record]]
given_smiles = "O=C(Nc1ccc([N+](=O)[O-])cc1Cl)c1cc(Cl)ccc1OC(=O)N1CCNCC1"
assay_readout = "Vd/F"
value = 1.78

